# ASSAYED_SYSTEM: α1 subunit of the human GABAA receptor in association with the beta2 (short) and gamma2 (long) subunits (Homo sapiens, UniProt P14867+P18507+P47870)
# Construct: expressed in transfected cells; host or cells: HEK-293
# Sequence (P14867 28-456): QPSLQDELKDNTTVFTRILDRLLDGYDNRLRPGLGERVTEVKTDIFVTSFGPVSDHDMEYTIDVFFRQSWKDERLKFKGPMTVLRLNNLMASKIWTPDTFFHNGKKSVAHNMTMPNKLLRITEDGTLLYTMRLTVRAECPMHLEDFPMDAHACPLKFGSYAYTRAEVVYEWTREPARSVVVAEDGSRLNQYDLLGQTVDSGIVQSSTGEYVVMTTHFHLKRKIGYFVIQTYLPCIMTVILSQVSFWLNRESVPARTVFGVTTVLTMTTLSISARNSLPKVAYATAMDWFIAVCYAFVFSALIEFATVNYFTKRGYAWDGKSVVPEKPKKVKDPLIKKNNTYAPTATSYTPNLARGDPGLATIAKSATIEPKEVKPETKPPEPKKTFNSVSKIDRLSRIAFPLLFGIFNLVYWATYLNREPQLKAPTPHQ
# Sequence (P47870 26-474 isoform P47870-1 partner limits assumed): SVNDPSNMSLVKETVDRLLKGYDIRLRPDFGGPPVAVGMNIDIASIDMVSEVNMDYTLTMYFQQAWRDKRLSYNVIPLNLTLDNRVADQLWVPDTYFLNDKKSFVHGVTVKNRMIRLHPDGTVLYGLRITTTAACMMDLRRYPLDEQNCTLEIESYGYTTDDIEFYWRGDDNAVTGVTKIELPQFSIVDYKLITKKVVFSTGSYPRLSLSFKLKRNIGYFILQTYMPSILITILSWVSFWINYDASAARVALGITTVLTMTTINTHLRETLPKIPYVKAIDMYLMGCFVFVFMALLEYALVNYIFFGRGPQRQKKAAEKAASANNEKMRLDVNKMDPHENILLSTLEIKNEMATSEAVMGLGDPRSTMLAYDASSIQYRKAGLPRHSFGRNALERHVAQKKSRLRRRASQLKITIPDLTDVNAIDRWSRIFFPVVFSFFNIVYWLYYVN
# Sequence (P18507 40-475 partner): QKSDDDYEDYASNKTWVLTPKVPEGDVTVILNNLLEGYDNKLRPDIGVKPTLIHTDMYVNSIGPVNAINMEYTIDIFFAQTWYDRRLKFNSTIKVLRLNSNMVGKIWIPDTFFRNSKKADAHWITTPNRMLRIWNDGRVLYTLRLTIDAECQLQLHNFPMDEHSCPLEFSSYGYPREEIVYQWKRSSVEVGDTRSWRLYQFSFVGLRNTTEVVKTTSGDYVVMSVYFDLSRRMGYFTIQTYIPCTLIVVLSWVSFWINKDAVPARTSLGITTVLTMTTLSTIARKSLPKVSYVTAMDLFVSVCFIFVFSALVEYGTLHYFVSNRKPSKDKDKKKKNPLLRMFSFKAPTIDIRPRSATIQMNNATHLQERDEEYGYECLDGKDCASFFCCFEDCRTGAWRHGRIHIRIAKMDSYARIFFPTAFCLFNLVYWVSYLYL
# PROTOCOL_DETAILS: GABA-induced membrane potential response (FMP dye, FlexStation3) in HEK-293 cells expressing GABAA α1
# Assay type: cell-based
Here, each record is paired with measured IC50 data.
RESULT_TYPE: IC50

compound="CC1=NN=C(c2oc3ccc(O)cc3c2C)c2cc3c(cc2C1)NC(=O)C(C)O3 (stereo not drawn) [Example 14]" result_type=IC50 result="13.7 µM"
compound="CC1=NN=C(c2sc3cccc(F)c3c2C)c2cc3c(cc2C1)NC(=O)C(C)O3 (stereo not drawn) [Example 1]" result_type=IC50 result="> 10 µM"
compound="CCc1ccc2oc(C3=NN=C(C)Cc4cc5c(cc43)OC(C)C(=O)N5)c(CC)c2c1 (stereo not drawn) [Example 13]" result_type=IC50 result="> 10 µM"
compound="CC1=NN=C(c2oc3ccc(Cl)cc3c2C)c2cc3c(cc2C1)NC(=O)C(C)O3 (stereo not drawn) [Example 12]" result_type=IC50 result="> 10 µM"
compound="CC1=NN=C(c2sc3cc(Cl)c(F)cc3c2C)c2cc3c(cc2C1)NC(=O)C(C)O3 (stereo not drawn) [Example 8]" result_type=IC50 result="> 10 µM"
compound="COc1ccc2oc(C3=NN=C(C)Cc4cc5c(cc43)OC(C)C(=O)N5)c(C)c2c1 (racemic) [Example 2]" result_type=IC50 result="> 10 µM"
